Provenance of the data: paper PMC11306251

# TARGET UNDER TEST: T1, FL-RAD52 (Homo sapiens, UniProt P43351 1-418)
# T1 sequence: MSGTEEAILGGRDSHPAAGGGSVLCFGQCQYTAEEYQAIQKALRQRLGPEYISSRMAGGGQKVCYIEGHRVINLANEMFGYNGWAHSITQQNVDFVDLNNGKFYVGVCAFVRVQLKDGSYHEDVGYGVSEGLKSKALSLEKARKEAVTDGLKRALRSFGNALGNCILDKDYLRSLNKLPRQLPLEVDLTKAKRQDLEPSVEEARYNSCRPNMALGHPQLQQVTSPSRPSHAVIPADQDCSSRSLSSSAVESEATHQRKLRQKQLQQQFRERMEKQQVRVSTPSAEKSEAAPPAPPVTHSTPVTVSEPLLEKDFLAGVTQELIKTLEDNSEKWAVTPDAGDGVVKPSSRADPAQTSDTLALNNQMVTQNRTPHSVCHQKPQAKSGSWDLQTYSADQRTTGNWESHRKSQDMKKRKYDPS
# METHOD SUMMARY: fluorescence polarization; apparent Kd; 10 nM DNA; FP: 25 mM Tris-HCl pH 7.5, 62.5 mM NaCl, 5% glycerol, 1 mM DTT, room temperature, 15 min
# CONDITION PARAMETERS: protein: recombinant; tags: His-tag (pET15b); label: 5'-6-FAM; single strand
TEST READOUT: Kd (µM)

binder="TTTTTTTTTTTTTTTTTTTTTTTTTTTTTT (ssDNA) [dT30 ssDNA]" observed_measurement=0.0372
